assay: Pharmacokinetics after intravenous and oral administration in rats; type: in vivo; conditions: iv dosing, dose 1 mg/kg (Ex. 9: 0.6, Ex. 18: 0.5, Ex. 50: 0.96 mg/kg)
measured-metric: Clearance (CL) after iv dosing (mL/min/kg)

{"columns": ["compound", "Clearance (CL) after iv dosing / mL/min/kg"],
 "data": [
  ["Cn1cnc2cc(Nc3ncc(Cl)c(NC4CCN(c5ccc(C#N)cn5)CC4)n3)ccc21 [Example 46]", 4.83]
]}

A: Cn1cnc2cc(Nc3ncc(Cl)c(NC4CCN(c5ccc(C#N)nn5)CC4)n3)ccc21 [Example 50]
B: CCC1CN(c2ccc(C#N)cn2)CCC1Nc1nc(Nc2ccn3cnnc3c2)ncc1Cl (stereo not drawn) [Example 5]
C: CC(C)(O)Cc1nc2cc(Nc3ncc(Cl)c(NC4CCN(c5ccc(C#N)cn5)CC4)n3)ccn2n1 [Example 78]
D: CC(C)(O)Cc1cn2cc(Nc3ncc(Cl)c(NC4CCN(c5ccc(C#N)cn5)CC4)n3)ccc2n1 [Example 73]
E: CC(O)Cn1ccc2cc(Nc3ncc(Cl)c(NC4CCN(c5ccc(C#N)cn5)CC4)n3)cnc21 (stereo not drawn) [Example 54]
Q: Write the entries in order, lowest recorded Clearance (CL) after iv dosing first. // format: requested-order list of labels
A: B, A, E, D, C

1: CC(O)Cn1cnc2cc(Nc3ncc(Cl)c(NC4CCN(c5ccc(C#N)cn5)CC4)n3)cnc21 (stereo not drawn) [Example 52]
2: Cc1nc2cc(Nc3ncc(Cl)c(NC4CCN(c5ccc(C#N)nn5)CC4)n3)ccn2n1 [Example 35]
Q: Lower Clearance (CL) after iv dosing: 1 or 2 ? // return label of chosen record
A: 2

---

molecular target: JAK1 (h) (Homo sapiens, UniProt P23458)
Sequence (P23458 whole entry): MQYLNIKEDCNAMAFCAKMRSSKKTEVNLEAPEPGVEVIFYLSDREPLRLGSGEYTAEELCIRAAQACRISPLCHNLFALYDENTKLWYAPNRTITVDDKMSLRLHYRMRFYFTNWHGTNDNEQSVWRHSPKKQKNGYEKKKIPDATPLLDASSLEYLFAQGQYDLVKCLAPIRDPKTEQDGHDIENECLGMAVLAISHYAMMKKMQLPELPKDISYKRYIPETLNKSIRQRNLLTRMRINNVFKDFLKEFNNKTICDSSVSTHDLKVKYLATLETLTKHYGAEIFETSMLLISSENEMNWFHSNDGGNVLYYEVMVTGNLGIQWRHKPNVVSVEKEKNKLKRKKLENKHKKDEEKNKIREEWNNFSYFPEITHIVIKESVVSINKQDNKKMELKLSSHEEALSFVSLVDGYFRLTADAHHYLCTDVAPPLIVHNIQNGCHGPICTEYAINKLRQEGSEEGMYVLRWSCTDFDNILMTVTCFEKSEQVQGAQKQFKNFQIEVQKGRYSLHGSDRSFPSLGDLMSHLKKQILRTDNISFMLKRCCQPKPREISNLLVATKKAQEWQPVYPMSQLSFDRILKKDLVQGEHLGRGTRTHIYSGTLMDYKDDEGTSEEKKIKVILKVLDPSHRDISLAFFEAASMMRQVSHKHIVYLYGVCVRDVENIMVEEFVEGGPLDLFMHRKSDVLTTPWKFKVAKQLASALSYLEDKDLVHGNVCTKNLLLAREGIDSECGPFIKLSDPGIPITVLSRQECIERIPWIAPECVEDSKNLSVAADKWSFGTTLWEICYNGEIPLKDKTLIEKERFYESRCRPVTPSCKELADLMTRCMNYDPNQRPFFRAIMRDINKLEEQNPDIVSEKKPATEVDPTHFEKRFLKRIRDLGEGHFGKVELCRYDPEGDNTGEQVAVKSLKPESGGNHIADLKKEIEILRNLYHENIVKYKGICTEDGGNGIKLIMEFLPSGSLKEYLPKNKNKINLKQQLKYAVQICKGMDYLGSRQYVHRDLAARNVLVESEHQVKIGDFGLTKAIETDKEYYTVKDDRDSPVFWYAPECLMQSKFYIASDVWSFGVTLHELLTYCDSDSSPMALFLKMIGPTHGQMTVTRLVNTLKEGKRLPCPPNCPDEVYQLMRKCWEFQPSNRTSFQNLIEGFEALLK
pIC50: −log10 of the molar value.
measured-metric: pIC50

Examples with answers:
{"columns": ["compound", "recorded-result"],
 "data": [
  ["CC(C)(O)Cc1nc2ccc(Nc3ncc(Cl)c(NC4CCN(c5ccc(C#N)nn5)CC4)n3)cn2n1", 9.00],
  ["N#Cc1ccc(N2CCC(Nc3nc(Nc4ccn5c(C6CC6)cnc5c4)ncc3Cl)CC2)nn1", 8.52],
  ["CC(C)(O)Cc1cn2ccc(Nc3ncc(Cl)c(NC4CCN(c5ccc(C#N)nn5)CC4)n3)cc2n1", 9.05]
]}

A: N#Cc1ccc(N2CCC(Nc3nc(Nc4ccn5c(C(F)F)nnc5c4)ncc3Cl)CC2)nc1
B: Cc1nnc2cc(Nc3ncc(Cl)c(NC4CCN(c5ccc(C#N)cn5)CC4)n3)cnn12
C: Cc1nnc2cc(Nc3ncc(Cl)c(NC4CCN(c5ccc(C#N)nn5)CC4)n3)ccn12
Q: Sort entries by pIC50 from minimum to maximum value. Present the labels in the sequence the task asks for.
A: B, A, C

---

experiment: Compound stability in human liver microsomes; assay type: in vitro ADME; details: liver microsomes, pH 7.4; in vivo CLint extrapolated from human liver microsome incubation
measured-metric: CLint scaled at 5 μM (mL/min/kg)

{"columns": ["compound", "recorded-result"],
 "data": [
  ["CC(O)c1cnc2cc(Nc3ncc(Cl)c(NC4CCN(c5ccc(C#N)cn5)CC4)n3)ccn12 (stereo not shown)", 74.1]
]}

A: N#Cc1ccc(N2CCC(Nc3nc(Nc4ccn5c(C6CC6)cnc5c4)ncc3Cl)CC2)nn1
B: CC(C)(O)c1nc2cc(Nc3ncc(Cl)c(NC4CCN(c5ccc(C#N)cn5)CC4)n3)ccn2n1
C: CCC1CN(c2ccc(C#N)nn2)CCC1N(C)c1nc(Nc2ccn3c(C)cnc3c2)ncc1Cl (stereo not shown)
Q: // smallest CLint scaled at 5 μM at index 0, largest at the end // list labels; follow requested order
A: C, B, A

1: Cc1nnc2cc(Nc3ncc(Cl)c(NC4CCN(c5ccc(C#N)cn5)CC4)n3)cnn12
2: CC(C)(O)c1cnc2cc(Nc3ncc(Cl)c(NC4CCN(c5ccc(C#N)nn5)CC4)n3)ccn12
3: Cc1nc2cc(Nc3ncc(Cl)c(NC4CCN(c5ccc(C#N)cn5)CC4)n3)ccc2n1C
4: CC(C)(O)c1nc2cc(Nc3ncc(Cl)c(NC4CCN(c5ccc(C#N)nn5)CC4)n3)ccn2n1
Q: Order the entries by their reported CLint scaled at 5 μM, beginning at the minimum. Provide your answer as the labels ordered per the instruction.
A: 4, 1, 3, 2

I: CC(C)(O)c1cn2ccc(Nc3ncc(Cl)c(NC4CCN(c5ccc(C#N)cn5)CC4)n3)cc2n1
II: Cc1nc2ccc(Nc3ncc(Cl)c(NC4CCN(c5ccc(C#N)nn5)CC4)n3)cn2n1
Q: Quick check, higher CLint scaled at 5 μM between I and II ? Your choice should be expressed through its label.
A: I
(I: 168 mL/min/kg, II: 13.9 mL/min/kg)
